System: HT-29
Assay: SRB colorimetric cell growth inhibition assay, HT-29
Assay type: cell-based
Details: Homo sapiens, HT-29, HT-29; GI=growth inhibition; read-out: GI50 HT-29
Classify: yes when GI50 is strictly less than 2000 nM; no when GI50 is not.

COc1cc(-c2c3c4cc(OC)c(OC(=O)[C@@H]5CCCN5)cc4oc(=O)c3n3ccc4cc(OC(=O)[C@@H]5CCCN5)c(OC)cc4c23)ccc1OC(=O)[C@@H]1CCCN1: yes
COc1cc2c(cc1OC)-c1c(-c3ccc(OC(=O)CCCC[C@@H]4SC[C@@H]5NC(=O)N[C@@H]54)c(OC)c3)c3c4cc(OC)c(OC(=O)CCCC[C@@H]5SC[C@@H]6NC(=O)N[C@@H]65)cc4oc(=O)c3n1CC2: yes
COc1cc(-c2c3c4cc(OC)c(OC(C)C)cc4oc(=O)c3n3ccc4c([N+](=O)[O-])cccc4c23)ccc1OC(C)C: yes
COc1cc2c(cc1O)CCn1c-2c(Br)c2c3cc(OC)c(O)cc3oc(=O)c21: no
COc1cc(-c2c3c4cc(OC)c(OC(=O)[C@@H]5CCCN5)cc4oc(=O)c3n3ccc4c(OC(=O)[C@@H]5CCCN5)c(OC)c(OC)cc4c23)ccc1OC(=O)[C@@H]1CCCN1: no
COc1cc(-c2c3c4cc(OC)c(OC(=O)CCCCCN)cc4oc(=O)c3n3ccc4cc(OC(=O)CCCCCN)c(OC)cc4c23)ccc1OC(=O)CCCCCN: no
COc1cc(-c2c3n(c4c(=O)oc5cc(OC(=O)[C@@H]6CCCN6)c(OC)cc5c24)CCc2cc(OC(=O)[C@@H]4CCCN4)c(OC)cc2-3)ccc1OC(=O)[C@@H]1CCCN1: no
COc1cc(-c2c3c4cc(OC)c(OC(=O)CCc5ccccc5)cc4oc(=O)c3n3ccc4cc(OC(=O)CCc5ccccc5)c(OC)cc4c23)ccc1OC(=O)CCc1ccccc1: yes
